These entries and their values trace back to ChEMBL document CHEMBL1157842.

system: Paracentrotus lividus; assay: Cytotoxicity against Paracentrotus lividus embryo assessed as embryo spinning after 9 to 12 hrs fertilization and 0.5 to 20 hrs treatment; type: functional, organism-based
quantityMeasured: EC50 (nM)
The response must be a number in nM with no trailing unit.

q: # return EC50 for COc1cc([C@@H]2c3cc4c(cc3[C@H](O)[C@H]3COC(=O)[C@H]23)OCO4)cc(OC)c1OC , test system: Paracentrotus lividus
a: 500

q: Provide EC50, tested on Paracentrotus lividus, for c1cc(CNc2csnc2-c2nnc(Nc3ccc4c(c3)OCCO4)o2)ccn1 .
a: 100

q: Look up and report measured EC50 (Paracentrotus lividus) for the following compound: Nc1cc2c(cc1-c1nnc(Nc3ccc4c(c3)OCO4)o1)OCO2
a: 200

q: Retrieve EC50 on Paracentrotus lividus; query c1cc(CNc2csnc2-c2nnc(Nc3ccc4c(c3)OCO4)o2)ccn1
a: 20

q: Please report EC50 with Paracentrotus lividus for item c1ccc(-c2nnc(Nc3ccc4c(c3)OCO4)o2)c(NCc2ccncc2)c1 .
a: 5
